Measured Plant response rating, Blackgrass, listed per entry.
Tested on: blackgrass (Alopecurus myosuroides)
Test: Test B pre-/postemergence
Type: in vivo
Parameters: key: 0 is no effect; 10 is complete control
Conditions: Rate 250 g/ha, Postemergence (so in the source)
Give your answer as a number; write no unit.

Past entries and their recorded results:
# Structure String, Plant response rating, Blackgrass
rows = [
    ("CCc1cnc(-c2ccc(C(F)(F)F)cc2)nc1Cc1cccc(OC(F)(F)F)c1", 10),
    ("Cc1cnc(-n2cnc(C(F)(F)F)c2)nc1Cc1cccc(C(F)(F)F)c1", 9),
    ("Cc1cnc(-c2ccccc2F)nc1Cc1cccc(C#N)c1", 0),
    ("Cc1cnc(-c2ccc(C#N)cc2)nc1Cc1cccc(C(F)(F)F)c1", 2),
    ("CCc1cnc(-n2cnc(C(F)(F)F)c2)nc1Cc1cccc(OC(F)(F)F)c1", 6),
]

Incoming: Request body: readout Plant response rating, Blackgrass, system blackgrass (Alopecurus myosuroides), query Cc1cnc(-c2ccc(Cl)cc2F)nc1Cc1cccc(C#N)c1 . Return the value.
Outgoing: 0

Incoming: Request body: readout Plant response rating, Blackgrass, system blackgrass (Alopecurus myosuroides), query Cc1cnc(-c2ccc(Cl)c(Cl)c2)nc1Cc1cccc(C#N)c1 . Return the value.
Outgoing: 0

Incoming: Request body: readout Plant response rating, Blackgrass, system blackgrass (Alopecurus myosuroides), query Cc1cnc(-n2cnc(C(F)(F)F)n2)nc1Cc1cccc(C(F)(F)F)c1 . Return the value.
Outgoing: 8

---

System: sourgrass (Trichachne insularis)
Assay: Test E pre-/postemergence/post directed
Type: in vivo
Conditions: PREEMERGENCE, Rate 32 g/ha
Recorded Metric: Plant response rating, Sourgrass
Give your answer as a number; write no unit.

# Molecule, Plant response rating, Sourgrass
data = [
    ("Cc1cnc(-n2cnc(C(F)(F)F)c2)nc1Cc1cccc(C(F)(F)F)c1 [Compound 44]", 80),
    ("Cc1cnc(-n2cnc(C(F)(F)F)n2)nc1C(=O)c1cccc(C(F)(F)F)c1 [Compound 67]", 98),
    ("Cc1cnc(-c2ccc(C(F)(F)F)cc2)nc1Cc1cccc(OC(F)(F)F)c1 [Compound 15]", 100),
    ("CCc1cnc(-n2ccc(C(F)(F)F)n2)nc1Cc1cccc(C(F)(F)F)c1 [Compound 46]", 98),
]

Kindly consider the entry below.
Incoming: Field request: Plant response rating, Sourgrass | item: Cc1cnc(-c2ccc(C(F)(F)F)cc2)nc1Cn1ccc(C(F)(F)F)n1 [compound 9]
Outgoing: 85

---

System: morningglory (Ipomoea spp.)
Assay: Test A pre-/postemergence
Type: in vivo
Conditions: PRE SOIL DRENCH, Rate 2000 g/ha; 0 to 10 scale
Measured Plant response rating, Morningglory, listed per entry.
Give your answer as a number; write no unit.

Past entries and their recorded results:
# Compound, Plant response rating, Morningglory
records = [
    ("Cc1cnc(-c2ccc(C(F)(F)F)cc2)nc1Cn1nc(C(F)(F)F)cc1C [Compound 13]", 3),
    ("Cc1cnc(-c2ccc(C(F)(F)F)cc2)nc1Cn1cc(I)cn1 [Compound 12]", 3),
    ("Cc1cnc(-n2ccc(C(F)(F)F)n2)nc1C(=O)c1cccc(C(F)(F)F)c1 [Compound 59]", 9),
]

Kindly consider the entry below.
Incoming: Request body: readout Plant response rating, Morningglory, system morningglory (Ipomoea spp.), query Cc1cnc(-c2ccc(C(F)(F)F)cc2)nc1Cc1cccc(C(F)(F)F)c1 [Example 1] . Return the value.
Outgoing: 8

---

System: duck salad (Heteranthera limosa)
Assay: Test B flood test
Assay type: in vivo
Details: Rate 62 g/ha, Postemergence (flood test)
Recorded Metric: Plant response rating, Ducksalad
Give your answer as a number; write no unit.

# Compound, Assay Value
data = [
    ("Cc1cnc(-n2cnc(C(F)(F)F)c2)nc1Cc1cccc(C(F)(F)F)c1", 4),
    ("Cc1cnc(-c2ccc(F)c(Cl)c2)nc1Cc1cccc(C(F)(F)F)c1", 3),
    ("Cc1cnc(-c2ccc(Cl)cc2)nc1Cn1ccc(C(F)(F)F)n1", 0),
    ("Cc1cnc(-n2ccc(C(F)(F)F)n2)nc1Cc1cccc(C(F)(F)F)c1", 0),
    ("Cc1cnc(-c2ccc(F)c(Cl)c2)nc1Cc1cccc(C#N)c1", 1),
    ("COC(=O)C(c1cccc(C(F)(F)F)c1)c1nc(-c2ccc(C(F)(F)F)cc2)ncc1C (racemic)", 1),
]

Kindly consider the entry below.
Incoming: Request body: readout Plant response rating, Ducksalad, system duck salad (Heteranthera limosa), query Cc1cnc(-c2ccc(Cl)cc2)nc1Cc1cccc(C(F)(F)F)c1 . Return the value.
Outgoing: 2

---

System: broadleaf signalgrass (Brachiaria decumbens)
Assay: Test B pre-/postemergence
Assay type: in vivo
Conditions: Rate 62 g/ha, Postemergence
Measured Plant response rating, B. signalgrass, listed per entry.
Give your answer as a number; write no unit.

# Structure String, Plant response rating, B. signalgrass
records = [
    ("CCc1cnc(-n2cnc(C(F)(F)F)c2)nc1Cc1cccc(OC(F)(F)F)c1", 2),
    ("Cc1cnc(-c2ccc(OC(F)(F)F)cc2)nc1Cc1cccc(C(F)(F)F)c1", 1),
    ("Cc1cnc(-c2ccc(C#N)cc2)nc1Cc1cccc(C#N)c1", 1),
    ("Cc1cnc(-c2ccc(C(F)(F)F)cc2)nc1Cn1ccc(C(F)(F)C(F)(F)F)n1", 2),
]

Kindly consider the entry below.
Incoming: Field request: Plant response rating, B. signalgrass | item: Cc1cnc(-c2ccc(C#N)cc2)nc1Cc1cccc(C(F)(F)F)c1
Outgoing: 1

---

Measured Plant response rating, Giant foxtail, listed per entry.
System: giant foxtail (Setaria faberii)
Assay: Test B pre-/postemergence
Format: in vivo
Details: Preemergence, Rate 62 g/ha; scale of 0 to 10
Give your answer as a number; write no unit.

Past entries and their recorded results:
# Structure String, Recorded Metric, Assay Value
rows = [
    ("Cc1cnc(-n2ccc(C(F)(F)C(F)(F)F)n2)nc1C(=O)c1cccc(OC(F)(F)F)c1", "Plant response rating, Giant foxtail", 1),
    ("Cc1cnc(-n2cnc(C(F)(F)F)c2)nc1C(=O)c1cccc(OC(F)(F)F)c1", "Plant response rating, Giant foxtail", 2),
    ("O=C(c1cccc(C(F)(F)F)c1)c1ccnc(-n2ccc(C(F)(F)F)n2)n1", "Plant response rating, Giant foxtail", 0),
]

Incoming: Request body: readout Plant response rating, Giant foxtail, system giant foxtail (Setaria faberii), query Cc1cnc(-n2cnc(C(F)(F)F)c2)nc1C(=O)c1cccc(C(F)(F)F)c1 . Return the value.
Outgoing: 8

Incoming: Request body: readout Plant response rating, Giant foxtail, system giant foxtail (Setaria faberii), query O=C(c1cccc(C(F)(F)F)c1)c1ccnc(-c2ccc(C(F)(F)F)cc2)n1 . Return the value.
Outgoing: 0

---

System: wild oat (Avena fatua)
Assay: Test B pre-/postemergence
Assay type: in vivo
Conditions: Rate 125 g/ha, Postemergence
Measured Wild oats plant response rating, listed per entry.
Give your answer as a number; write no unit.

# Structure String, Wild oats plant response rating
records = [
    ("Cc1cnc(-c2ccc(C(F)(F)F)cc2)nc1C(=O)c1cccc(OC(F)(F)F)c1", 3),
]

Incoming: Field request: Wild oats plant response rating | item: COc1cnc(-n2ccc(C(F)(F)F)n2)nc1Cc1cccc(C(F)(F)F)c1
Outgoing: 0

Incoming: Field request: Wild oats plant response rating | item: Cc1cnc(-c2ccc(C(F)(F)F)cc2)nc1Cc1cccc(C#N)c1
Outgoing: 3

Incoming: Field request: Wild oats plant response rating | item: Cc1cnc(-c2ccc(C(F)(F)F)cc2)nc1C(=O)c1ccc(C(F)(F)F)cc1
Outgoing: 1

Incoming: Field request: Wild oats plant response rating | item: N#Cc1ccc(-c2nccc(C(=O)c3cccc(C(F)(F)F)c3)n2)cc1
Outgoing: 0

---

Measured Plant response rating, Corn, listed per entry.
System: corn (Zea mays)
Assay: Test B pre-/postemergence
Format: in vivo
Set-up: key: 0 is no effect; 10 is complete control
Conditions: Preemergence, Rate 62 g/ha; scale of 0 to 10
Give your answer as a number; write no unit.

Past entries and their recorded results:
# Structure String, Plant response rating, Corn
measured = [
    ("Cc1cnc(-c2ccc(C(F)(F)F)cc2)nc1Cn1cc(Br)cn1", 0),
    ("Cc1cnc(-n2cnc(C(F)(F)F)c2)nc1C(=O)c1cccc(OC(F)(F)F)c1", 0),
    ("N#Cc1ccc(-c2nccc(C(=O)c3cccc(C(F)(F)F)c3)n2)cc1", 0),
    ("Cc1cnc(-n2cnc(C(F)(F)F)c2)nc1C(=O)c1cccc(C(F)(F)F)c1", 1),
    ("Cc1cnc(-c2ccc(C(F)(F)F)cc2)nc1Cn1ccc(C#N)n1", 0),
]

Incoming: Field request: Plant response rating, Corn | item: Cc1cnc(-n2cnc(C(F)(F)F)n2)nc1C(=O)c1cccc(C(F)(F)F)c1
Outgoing: 4

Incoming: Field request: Plant response rating, Corn | item: Cc1cnc(-n2ccc(C(F)(F)F)n2)nc1C(=O)c1cccc(OC(F)(F)F)c1
Outgoing: 0

Incoming: Field request: Plant response rating, Corn | item: Cc1cnc(-n2ccc(C(F)(F)F)n2)nc1C(=O)c1ccc(C(F)(F)F)cc1
Outgoing: 0
